Reported TGase activity remaining (% of DMSO control = 100) values for the following molecules.
# System: transglutaminase (TGase)
# test-summary: Measurement of TG (TGase inhibitory activity, monodansyl cadaverine / N,N-dimethylcasein fluorescence, FDSS 3000)
# Type: biochemical
# test-settings: TGase inhibitory activity value, Table 1
Respond using a number only.

These recorded examples may help you get a feel for the data.
O=C(OB(c1ccccc1)c1ccccc1)c1ccccn1 [Example 218, diphenyl(picolinate-O,N)borane] ... 90
CCC(C)B(O)c1ccccc1 (stereo not drawn) [Example 107, secondary-butyl phenyl borinic acid] ... 111
NCCOB(c1ccccc1)c1ccc(COc2ccc(B(OCCN)c3ccccc3)cc2)cc1 [Example 371] ... 16
CCCCB(CCCC)OC(=O)C(C)N (stereo not drawn) [Example 159, dibutyl(alanine-O,N)borane] ... 102

Incoming: Would you please give the reported TGase activity remaining (% of DMSO control = 100) of OB(c1ccccc1)c1ccc2ccccc2c1-c1c(B(O)c2ccccc2)ccc2ccccc12 [Example 359] with transglutaminase (TGase)?
Outgoing: 139

Incoming: For transglutaminase (TGase), give TGase activity remaining (% of DMSO control = 100) of the listed molecule: N#Cc1ccc(B(OCCN)c2ccc(C#N)cc2)cc1 [Example 103, aminoethyl bis(4-cyanophenyl)borinate]
Outgoing: 114

Incoming: Give TGase activity remaining (% of DMSO control = 100) for O=C(OB(c1ccc(C(F)(F)F)cc1)c1ccc(C(F)(F)F)cc1)c1ccccn1 [Example 284] tested on transglutaminase (TGase).
Outgoing: 89

Incoming: # return TGase activity remaining (% of DMSO control = 100) of CCCCB(O)c1ccccc1 [Example 108, normal-butyl phenyl borinic acid] (system: transglutaminase (TGase))
Outgoing: 111

Incoming: Answer with TGase activity remaining (% of DMSO control = 100) of NCCOB(c1cc(F)cc(F)c1)c1cc(F)cc(F)c1 [Example 91] measured for transglutaminase (TGase).
Outgoing: 107

Incoming: State the measured TGase activity remaining (% of DMSO control = 100) (transglutaminase (TGase)) of Cc1cc(B(OCCN)c2ccccc2)cc(B(OCCN)c2ccccc2)c1 [Example 357, 3,5-di(phenylaminoethoxyboryl)toluene]
Outgoing: 89

Incoming: Return reported TGase activity remaining (% of DMSO control = 100) for target or system transglutaminase (TGase), item OB(c1ccc(COCc2ccc(B(O)c3ccc(F)c(F)c3)cc2)cc1)c1ccc(F)c(F)c1 [Example 352] .
Outgoing: 97

Incoming: For transglutaminase (TGase), give the measured TGase activity remaining (% of DMSO control = 100) of the entry OB(c1ccccc1)c1ccc(COCCOc2ccc(B(O)c3ccccc3)cc2)cc1 [Example 379]
Outgoing: 92

Incoming: Report TGase activity remaining (% of DMSO control = 100) from transglutaminase (TGase) testing of Cc1ccc(B(OC(=O)C(N)CN)c2ccc(C)c(Cl)c2)cc1Cl (stereo not drawn) [Example 71]
Outgoing: 51

These measurements were taken from patent US8853424B2.
